# log10 IC50 per entry
Tested on: PC-3
protocol.text: Cytotoxicity against human PC3 cells by MTT assay
Assay type: functional, cell-based
property.measured: log10 IC50 (log10 of the value in nM)

{"compound": "Oc1ccc(CN(Cc2cccs2)Cc2ccc(O)c3ncccc23)c2cccnc12", "property.measured": "log10 IC50", "observed.result": 1.64}
{"compound": "Oc1ccc(CN(Cc2cc(C(F)(F)F)cc(C(F)(F)F)c2)Cc2ccc(O)c3ncccc23)c2cccnc12", "property.measured": "log10 IC50", "observed.result": 1.85}
{"compound": "Oc1ccc(CN(Cc2cccc(I)c2)Cc2ccc(O)c3ncccc23)c2cccnc12", "property.measured": "log10 IC50", "observed.result": 2.60}
{"compound": "Oc1ccc(CN(Cc2cccc(C(F)(F)F)c2)Cc2ccc(O)c3ncccc23)c2cccnc12", "property.measured": "log10 IC50", "observed.result": 1.57}
{"compound": "O=C(O)C1CCC(CN(Cc2ccc(O)c3ncccc23)Cc2ccc(O)c3ncccc23)CC1 (stereo not drawn)", "property.measured": "log10 IC50", "observed.result": 4.00}
{"compound": "Oc1ccc(CN(Cc2ccccc2)Cc2ccc(O)c3ncccc23)c2cccnc12", "property.measured": "log10 IC50", "observed.result": 2.41}
{"compound": "Oc1ccc(CN(Cc2ccccc2C(F)(F)F)Cc2ccc(O)c3ncccc23)c2cccnc12", "property.measured": "log10 IC50", "observed.result": 2.25}
{"compound": "Oc1ccc(CN(Cc2ccc(C(F)(F)F)cc2)Cc2ccc(O)c3ncccc23)c2cccnc12", "property.measured": "log10 IC50", "observed.result": 1.82}
